- SYSTEM: P2X purinoceptor 1 (Rattus norvegicus, UniProt P47824)
- Sequence (P47824 whole entry): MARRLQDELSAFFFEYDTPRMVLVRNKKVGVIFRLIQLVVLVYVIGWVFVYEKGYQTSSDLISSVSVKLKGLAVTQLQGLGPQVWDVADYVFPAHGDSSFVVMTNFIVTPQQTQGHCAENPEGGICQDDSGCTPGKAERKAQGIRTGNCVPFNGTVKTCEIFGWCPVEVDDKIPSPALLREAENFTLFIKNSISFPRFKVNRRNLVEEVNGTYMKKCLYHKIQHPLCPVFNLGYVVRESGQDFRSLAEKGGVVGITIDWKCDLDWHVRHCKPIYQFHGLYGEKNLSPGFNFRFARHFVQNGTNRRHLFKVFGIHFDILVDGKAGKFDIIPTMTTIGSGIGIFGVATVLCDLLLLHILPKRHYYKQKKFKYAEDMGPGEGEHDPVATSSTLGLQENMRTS
- EXPERIMENTAL_DETAILS: Antagonist activity against rat P2X1 receptor expressed in Xenopus laevis oocyte assessed as inhibition of alpha, beta-meATP-induced inward current by two-electrode voltage-clamp electrophysiology
VALUE_TYPE: IC50 (nM)
Only the number, expressed in nM, is required.

`Nc1c(S(=O)(=O)O)cc(Nc2ccc(S(=O)(=O)O)c(Nc3nc(Cl)nc(Cl)n3)c2)c2c1C(=O)c1ccccc1C2=O` has a reported IC50 of 422

// data source = ChEMBL document CHEMBL1671813
